method.summary: NCI Yeast Anticancer Drug Screen. Data for the mec2-1 strain (AID 157)
test.conditions: S. cerevisiae mec2-1 strain, at 33.0 µM, stronger effect = higher value
The panel holds about 79,000 compounds, 15% with a hit somewhere; the sample as a whole holds those more often.
property.name: growth inhibition (%)
Your answer is read as %, so omit the unit and give the number.

compound: CCN(CC)CCNc1ccc2ncn3c4cc(OC)c(OC)c(=O)c4c(O)c1c23
unit.spec: %
growth inhibition: 8

compound: CCC(C)OC(=O)Nc1ccc(C)c(NC(=O)OC(C)CC)c1 (stereo not drawn)
unit.spec: %
growth inhibition: 2

Now turn to the next compound.
So for CCOC(=O)c1[nH]n(-c2ccccc2)c(=O)c1C=NC(=S)C(N)=S , the logged growth inhibition turned out to be 96
